B1: TRIM29 (parent)
chain: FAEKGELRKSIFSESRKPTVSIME

Variants of: B1
Assay text: protein stability index of a GFP-peptide fusion (GPS, HEK-293T) (PSI 1-6); higher = more stable;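 note: lentivirally expressed fusions sorted by FACS into six bins by GFP to DsRed ratio, PSI derived from sequencing read proportions per bin multiplied by bin number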
Protocol conditions: c terminus: a fixed tail appended
Please respond with reported protein stability index for every item in the list.
One number for each entry.

Mutation descriptor	Assay result
S13M	2.76
G5K	1.78
I22E	2.06
A2M	3.21

# return protein stability index for each item in the list
1. E3Y
2. S15F
3. P18S
4. M23F
5. V20W
6. K9Y

1. 1.88
2. 2.3
3. 1.46
4. 1.6
5. 2.58
6. 2.36

# return protein stability index for each item in the list
1. K9R
2. E14C
3. G5M
4. A2Q
5. V20M
6. K9S

1. 2.62
2. 2.21
3. 1.72
4. 3.44
5. 1.92
6. 1.88

# return protein stability index for each item in the list
1. E6I
2. L7W
3. R16L
4. E6P
5. S21E

1: 1.82; 2: 3.9; 3: 1.99; 4: 2.78; 5: 1.76
